Answer each item with its documented Plant response rating, Ryegrass, Italian.
- Tested on: ryegrass, Italian (Italian ryegrass, Lolium multiflorum)
- Assay Details: Test C greenhouse herbicide test, pre- and postemergence
- Format: in vivo
- Test Context: Postemergence, 31 g ai/ha; scale 0 to 100 (0 no effect, 100 complete control)
Just the number.

# input Any idea what its Plant response rating, Ryegrass, Italian is? The compound is CCCC(=O)Oc1c(C)nn(C)c(=O)c1-c1c(CC)sc2ccc(C)cc12 [Compound 107]
# output 40

# input Any idea what its Plant response rating, Ryegrass, Italian is? The compound is CCC(=O)Oc1c(C)nn(C)c(=O)c1-c1ccc(F)c2ccccc12 [Compound 113]
# output 90

# input Any idea what its Plant response rating, Ryegrass, Italian is? The compound is Cc1nn(C)c(=O)c(-c2c([N+](=O)[O-])ccc3ccccc23)c1O [Compound 165]
# output 40

# input Any idea what its Plant response rating, Ryegrass, Italian is? The compound is CCCC(=O)Oc1c(C)nn(C)c(=O)c1-c1c(C)sc2ccc(C)cc12 [Compound 105]
# output 85

# input Any idea what its Plant response rating, Ryegrass, Italian is? The compound is CCC(=O)Oc1c(C)nn(C)c(=O)c1-c1ccc(Br)c2ccccc12 [Compound 134]
# output 5

# input Any idea what its Plant response rating, Ryegrass, Italian is? The compound is Cc1nn(C)c(=O)c(-c2cccc3ccc(Br)cc23)c1O [Compound 126]
# output 80

---

Answer each item with its documented Windgrass plant response rating.
- Tested on: windgrass (Apera spica-venti)
- Assay Details: Test D controlled growth environment herbicide test, pre- and postemergence
- Format: in vivo
- Test Context: Postemergence, 31 g ai/ha; scale 0 to 100 (0 no effect, 100 complete control)
Just the number.

# input Form: Entry = COC(=O)Oc1c(C)nn(C)c(=O)c1-c1c(C)sc2ccc(C)cc12 [Compound 80] | System = windgrass (Apera spica-venti) | Windgrass plant response rating = ____
# output 75

# input Form: Entry = Cc1nn(C)c(=O)c(-c2cccc3ccccc23)c1O [Compound 11] | System = windgrass (Apera spica-venti) | Windgrass plant response rating = ____
# output 10

# input Form: Entry = CC(=O)Oc1c(C)nn(C)c(=O)c1-c1c(C)sc2ccc(Cl)cc12 [Compound 108] | System = windgrass (Apera spica-venti) | Windgrass plant response rating = ____
# output 65

# input Form: Entry = Cc1nn(C)c(=O)c(-c2c(C)sc3c(C)cc(Cl)cc23)c1O [Compound 35] | System = windgrass (Apera spica-venti) | Windgrass plant response rating = ____
# output 25

# input Form: Entry = Cc1ccc2sc(C)c(-c3c(OC(=O)OC(C)C)c(C)nn(C)c3=O)c2c1 [Compound 66] | System = windgrass (Apera spica-venti) | Windgrass plant response rating = ____
# output 75

# input Form: Entry = Cc1ccc2ccccc2c1-c1c(OC(=O)OC(C)C)c(C)nn(C)c1=O [Compound 72] | System = windgrass (Apera spica-venti) | Windgrass plant response rating = ____
# output 65

---

- Tested on: blackgrass (Alopecurus myosuroides)
- Assay Details: Test C greenhouse herbicide test, pre- and postemergence
- Assay type: in vivo
- Test Context: postemergence, 62 g ai/ha; scale 0 to 100, 0 no effect, 100 complete control
Answer each item with its documented Blackgrass plant response rating.
Just the number.

# input Any idea what its Blackgrass plant response rating is? The molecule is Cc1ccc2ccccc2c1-c1c(O)c(Br)nn(C)c1=O
# output 60

# input Any idea what its Blackgrass plant response rating is? The molecule is Cc1nn(C)c(=O)c(-c2cccc3ccccc23)c1O
# output 15

# input Any idea what its Blackgrass plant response rating is? The molecule is Cc1cc(C)c2sc(C)c(-c3c(O)c(C)nn(C)c3=O)c2c1
# output 65

# input Any idea what its Blackgrass plant response rating is? The molecule is Cc1cc2ccccc2c(-c2c(O)c(C)nn(C)c2=O)c1C
# output 10

# input Any idea what its Blackgrass plant response rating is? The molecule is CCc1ccc2ccccc2c1-c1c(O)c(C)nn(C)c1=O
# output 60

# input Any idea what its Blackgrass plant response rating is? The molecule is CCCC(=O)Oc1c(C)nn(C)c(=O)c1-c1c(C)sc2ccc(C)cc12
# output 40

# input Any idea what its Blackgrass plant response rating is? The molecule is Cc1ccc2ccccc2c1-c1c(O)c(C(F)(F)F)nn(C)c1=O
# output 5

# input Any idea what its Blackgrass plant response rating is? The molecule is Cc1nn(C)c(=O)c(-c2ccc(F)c3ccccc23)c1O
# output 35

# input Any idea what its Blackgrass plant response rating is? The molecule is CC(=O)Oc1c(C)nn(C)c(=O)c1-c1c(C)cc(C)c2ccccc12
# output 30

---

Answer each item with its documented Plant response rating (scale of 0 to 100), Bluegrass.
- System: bluegrass (annual bluegrass, Poa annua)
- Assay Details: Test D controlled growth environment herbicide test, pre- and postemergence
- Assay type: in vivo
- Test Context: Preemergence, 31 g ai/ha
Just the number.

# input Any idea what its Plant response rating (scale of 0 to 100), Bluegrass is? The compound is COC(=O)Oc1c(C)nn(C)c(=O)c1-c1c(C)sc2ccc(C)cc12
# output 20

# input Any idea what its Plant response rating (scale of 0 to 100), Bluegrass is? The compound is CCc1sc2ccc(C)cc2c1-c1c(O)c(C)nn(C)c1=O
# output 0

# input Any idea what its Plant response rating (scale of 0 to 100), Bluegrass is? The compound is Cc1ccc2sc(C)c(-c3c(OC(=O)OC(C)C)c(C)nn(C)c3=O)c2c1
# output 10

# input Any idea what its Plant response rating (scale of 0 to 100), Bluegrass is? The compound is Cc1nn(C)c(=O)c(-c2c(C)sc3c(C)cc(Cl)cc23)c1O
# output 25

# input Any idea what its Plant response rating (scale of 0 to 100), Bluegrass is? The compound is CC(=O)Oc1c(C)nn(C)c(=O)c1-c1c(C)sc2ccc(Cl)cc12
# output 10

# input Any idea what its Plant response rating (scale of 0 to 100), Bluegrass is? The compound is Cc1nn(C)c(=O)c(-c2ccc(F)c3ccccc23)c1O
# output 70

# input Any idea what its Plant response rating (scale of 0 to 100), Bluegrass is? The compound is Cc1ccc2sc(Br)c(-c3c(O)c(C)nn(C)c3=O)c2c1
# output 10

# input Any idea what its Plant response rating (scale of 0 to 100), Bluegrass is? The compound is Cc1cc2ccccc2c(-c2c(O)c(C)nn(C)c2=O)c1C
# output 0

---

Answer each item with its documented Plant response rating, Lambsquarters.
- Tested on: lambsquarters (Chenopodium album)
- Assay Details: Test C greenhouse herbicide test, pre- and postemergence
- Assay type: in vivo
- Test Context: Preemergence, 62 g ai/ha; scale 0 to 100, 0 is no effect, 100 is complete control

# input Any idea what its Plant response rating, Lambsquarters is? The compound is Cc1nn(C)c(=O)c(-c2ccc(Br)c3ccccc23)c1O [Compound 75]
# output 100

# input Any idea what its Plant response rating, Lambsquarters is? The compound is CCC(=O)Oc1c(OC)nn(C)c(=O)c1-c1c(C)sc2ccc(Cl)cc12 [Compound 131]
# output 70

# input Any idea what its Plant response rating, Lambsquarters is? The compound is Cc1ccc2ccccc2c1-c1c(OC(=O)OC(C)C)c(C)nn(C)c1=O [Compound 72]
# output 65

# input Any idea what its Plant response rating, Lambsquarters is? The compound is Cc1ccc2ccccc2c1-c1c(O)c(Br)nn(C)c1=O [Compound 23]
# output 85

# input Any idea what its Plant response rating, Lambsquarters is? The compound is Cc1nn(C)c(=O)c(-c2ccc(Cl)c3ccccc23)c1O [Compound 139]
# output 90

# input Any idea what its Plant response rating, Lambsquarters is? The compound is Cc1ccc2ccccc2c1-c1c(O)c(I)nn(C)c1=O [Compound 29]
# output 80

# input Any idea what its Plant response rating, Lambsquarters is? The compound is Cc1nn(C)c(=O)c(-c2c(C)sc3ccc(C(F)(F)F)cc23)c1O [Compound 121]
# output 80

# input Any idea what its Plant response rating, Lambsquarters is? The compound is CCc1oc2ccc(C)cc2c1-c1c(O)c(C)nn(C)c1=O [Compound 10]
# output 0

# input Any idea what its Plant response rating, Lambsquarters is? The compound is CCc1sc2ccc(C)cc2c1-c1c(O)c(C)nn(C)c1=O [Compound 47]
# output 100

# input Any idea what its Plant response rating, Lambsquarters is? The compound is Cc1nn(C)c(=O)c(-c2ccc(F)c3ccccc23)c1O [Compound 41]
# output 90

# input Any idea what its Plant response rating, Lambsquarters is? The compound is Cn1nc(Br)c(O)c(-c2cccc3ccccc23)c1=O [Compound 20]
# output 85

# input Any idea what its Plant response rating, Lambsquarters is? The compound is CC(=O)Oc1c(C)nn(C)c(=O)c1-c1c(C)sc2ccc(Cl)cc12 [Compound 108]
# output 90

# input Any idea what its Plant response rating, Lambsquarters is? The compound is Cc1nn(C)c(=O)c(-c2cccc3ccccc23)c1O [Compound 11]
# output 100

# input Any idea what its Plant response rating, Lambsquarters is? The compound is COC(=O)Oc1c(C)nn(C)c(=O)c1-c1ccc(Br)c2ccccc12 [Compound 145]
# output 90
